Listing of recorded inhibition by entry.
TGT: Glutathione S-transferase omega-1 (Homo sapiens)
PROTOCOL DETAILS: GSTO1 inhibitor hit confirmation, counter-screen for RBBP9 inhibitor project, biochemical, fluorescence polarization, triplicate (AID 2176);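 also: loss of polarization as inhibitors block binding of rhodamine sulfonate ester activity probe; 0% = GSTO1 with DMSO and 100% = wells lacking GSTO1 enzyme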
TEST SETTINGS: recombinant GSTO1, probe fluorescence polarization; at 5.96 µM; active compounds read high
The list shows a part of the results.
All answers are understood in %, so give the number only.

Check out these entries, answers already filled in.
O=C(Cn1c(-c2ccccn2)nc2ccccc21)NCCN1CCOCC1
6.3
CC(C)Cn1c(N)c(C(=O)NCc2cccs2)c2nc3ccccc3nc21
-4.29
Cc1oc2c(c1C(=O)N1CCOCC1)C(=O)c1ccccc1C2=O
29.9
O=S(=O)(Nc1ccc(O)c2ccccc12)c1ccc(OC(F)(F)F)cc1
38.2
Cc1[nH][nH]c(=O)c1C(c1ccc(-c2ccc(Cl)cc2)o1)c1c(C)[nH][nH]c1=O
22.6
O=S(=O)(O)Oc1c[nH]c2ccccc12
51.2
CN(C)[C@@H]1C(=O)C(C(N)=O)=C(O)[C@@]2(O)C(=O)C3=C(O)c4c(O)ccc(Cl)c4[C@@H](O)[C@H]3C[C@@H]12
24.2

# inhibition lookup, item CC1C(=O)Nc2ccccc2N1C(=O)c1ccc(F)cc1F (stereo not drawn)
5.92
